conditions: buffer; pH 7.4; 200.0 µM
solubility kinetic reference
endpointName: solubility kinetic

>>> measurement("Cc1sc2ncnc(NCCCN3CCCC3=O)c2c1C")
"> 45.7 µg/mL"
>>> measurement("Cc1cc(OC(=O)c2ccc(C)c(C)c2)c([N+](=O)[O-])c(=O)[nH]1")
"> 45.3 µg/mL"
>>> measurement("CCC(=O)c1c[nH]c(C(=O)NCc2cccnc2)c1")
"> 38.6 µg/mL"
>>> measurement("CCc1ccc(S(=O)(=O)NCc2csc(C)n2)cc1")
"> 44.5 µg/mL"
>>> measurement("Cc1cc(NS(=O)(=O)c2ccc(NC(=O)Cc3ccc([N+](=O)[O-])cc3)cc2)nc(C)n1")
"> 66.2 µg/mL"
